- TARGET_OF_ASSAY: human full-length glucocorticoid receptor (Homo sapiens (Human))
- Sequence (P04150 whole entry): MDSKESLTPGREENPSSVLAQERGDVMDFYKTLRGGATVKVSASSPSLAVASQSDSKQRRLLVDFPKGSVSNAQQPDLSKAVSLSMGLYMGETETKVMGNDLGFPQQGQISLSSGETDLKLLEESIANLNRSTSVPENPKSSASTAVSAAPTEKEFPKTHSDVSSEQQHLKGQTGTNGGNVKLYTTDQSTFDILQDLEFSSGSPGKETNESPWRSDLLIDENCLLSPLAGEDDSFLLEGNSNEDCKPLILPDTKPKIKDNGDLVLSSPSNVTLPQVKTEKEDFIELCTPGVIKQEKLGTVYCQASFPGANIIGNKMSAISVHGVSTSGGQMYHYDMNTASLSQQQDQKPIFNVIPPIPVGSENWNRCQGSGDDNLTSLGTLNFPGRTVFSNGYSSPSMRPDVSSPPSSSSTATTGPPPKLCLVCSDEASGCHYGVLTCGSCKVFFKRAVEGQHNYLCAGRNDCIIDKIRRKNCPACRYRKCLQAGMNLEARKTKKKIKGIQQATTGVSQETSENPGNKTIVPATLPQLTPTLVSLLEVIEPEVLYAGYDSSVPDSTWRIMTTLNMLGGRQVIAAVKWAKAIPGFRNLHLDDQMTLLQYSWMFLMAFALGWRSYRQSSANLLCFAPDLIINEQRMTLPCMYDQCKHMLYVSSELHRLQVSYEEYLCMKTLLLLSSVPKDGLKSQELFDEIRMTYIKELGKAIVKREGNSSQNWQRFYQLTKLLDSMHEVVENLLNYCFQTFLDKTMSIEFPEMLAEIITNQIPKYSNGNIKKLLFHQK
- PROCEDURE_DETAILS: Glucocorticoid Receptor Binding Assay (II), fluorescence polarization competitor kit
- ASSAY_SETUP: read-out: GR (Ki, nM) (measured in GR binding Assay II)
VALUE_KIND: Ki (nM)

See these solved cases before continuing.
>  <STRUCTURE_SMILES_STRING>
Cc1nnn(-c2ccc(-c3ccc4c(n3)Oc3ccccc3[C@@H]4C(C)(C)C(=O)NC(N)=O)cc2)n1

>  <TARGET_OF_ASSAY>
human full-length glucocorticoid receptor (Homo sapiens (Human))

>  <Ki (nM)>
1.51

$$$$
>  <STRUCTURE_SMILES_STRING>
CC(C)(C(=O)NC(N)=O)[C@@H]1c2ccc(-c3ccc(C(=O)N4CCCCC4)cc3)nc2Oc2c(F)cccc21

>  <TARGET_OF_ASSAY>
human full-length glucocorticoid receptor (Homo sapiens (Human))

>  <Ki (nM)>
1.11

$$$$
>  <STRUCTURE_SMILES_STRING>
CC(C)S(=O)(=O)c1ccc(-c2ccc3c(n2)Oc2c(F)cccc2[C@@H]3C(C)(C)C(=O)NC(N)=O)cc1

>  <TARGET_OF_ASSAY>
human full-length glucocorticoid receptor (Homo sapiens (Human))

>  <Ki (nM)>
3.55

$$$$

P = CC(C)(C(=O)NC(N)=O)[C@H]1c2ccccc2Oc2nc(-c3ccncc3)ccc21
Q = CNC(=O)NC(=O)C(C)(C)[C@@H]1c2ccc(-c3ccc(OC(C)C)cc3)nc2Oc2c(F)cccc21
R = CC(C)Oc1ccc(-c2ccc3c(n2)Oc2c(F)cccc2[C@@H]3C(C)(C)C(=O)NC(N)=O)cc1
Input line: Reorder: Ki, max to min. A complete answer lists every label in the requested sequence.
Output line: P, Q, R

###

- TARGET_OF_ASSAY: human full-length glucocorticoid receptor (Homo sapiens (Human))
- PROCEDURE_DETAILS: Glucocorticoid Receptor Binding Assay (II), fluorescence polarization competitor kit
- ASSAY_SETUP: read-out: GR (Ki, nM) (measured in GR binding Assay II)
VALUE_KIND: Ki (nM)

See these solved cases before continuing.
>  <COMPOUND>
CC(C)(C(=O)NC(N)=O)[C@H]1c2ccccc2Oc2nc(-c3ccc(C(=O)N4CCCC4)nc3)ccc21

>  <UNIT_LABEL>
nM

>  <Ki>
7.65

$$$$
>  <COMPOUND>
CC(C)(C(=O)NC(N)=O)[C@H]1c2ccccc2Oc2nc(-c3ccc(C(=O)N4CCC(F)(F)C4)c(F)c3)ccc21

>  <UNIT_LABEL>
nM

>  <Ki>
1.09

$$$$
>  <COMPOUND>
CCS(=O)(=O)c1ccc(-c2ccc3c(n2)Oc2ccccc2[C@@H]3C(C)(C)C(=O)NC(N)=O)cc1

>  <UNIT_LABEL>
nM

>  <Ki>
0.93

$$$$
>  <COMPOUND>
CC(C)(C(=O)NC(N)=O)[C@@H]1c2ccc(-c3ccc(C(=O)N4CCCC4)nc3)nc2Oc2c(F)cccc21

>  <UNIT_LABEL>
nM

>  <Ki>
1.97

$$$$

1 = CC(C)(C(=O)NC(N)=O)[C@@H]1c2ccc(-c3ccc(C(=O)N4CC[C@@H](F)C4)cc3)nc2Oc2c(F)cccc21
2 = CC(C)Oc1ccc(-c2ccc3c(n2)Oc2ccccc2[C@@H]3C(C)(C)C(=O)NC(N)=O)cn1 [Example 57]
3 = CC(C)(C(=O)NC(N)=O)[C@H]1c2ccccc2Oc2nc(-c3cc[n+]([O-])cc3)ccc21
Input line: Arrange the 3 entries by Ki so the values rise. A complete answer lists every label in the requested sequence.
Output line: 1, 2, 3
(1: 1.2 nM, 2: 4.23 nM, 3: 119 nM)
